Each recorded value in this set is attributed to ChEMBL document CHEMBL4000221.

Molecular target: Sodium-dependent serotonin transporter (Homo sapiens)
Sequence (P31645 whole entry): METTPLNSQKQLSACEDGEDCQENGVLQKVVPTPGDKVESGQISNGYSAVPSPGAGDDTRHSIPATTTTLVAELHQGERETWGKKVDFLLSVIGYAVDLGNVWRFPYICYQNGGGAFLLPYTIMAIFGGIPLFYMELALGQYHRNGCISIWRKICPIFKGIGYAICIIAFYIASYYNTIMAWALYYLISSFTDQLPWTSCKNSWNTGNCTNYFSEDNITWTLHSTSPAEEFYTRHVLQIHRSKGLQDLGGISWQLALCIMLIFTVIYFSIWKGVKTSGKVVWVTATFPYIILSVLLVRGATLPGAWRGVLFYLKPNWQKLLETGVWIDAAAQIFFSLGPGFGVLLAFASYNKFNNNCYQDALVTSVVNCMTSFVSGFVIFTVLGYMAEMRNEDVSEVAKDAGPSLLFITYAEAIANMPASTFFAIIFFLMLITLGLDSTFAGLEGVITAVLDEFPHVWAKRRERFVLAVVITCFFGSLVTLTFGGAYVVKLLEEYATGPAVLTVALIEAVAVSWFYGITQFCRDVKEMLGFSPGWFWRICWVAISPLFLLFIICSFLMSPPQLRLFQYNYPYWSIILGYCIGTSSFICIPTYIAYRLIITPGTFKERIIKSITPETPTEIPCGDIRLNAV
Assay: Inhibition of [3H]5-HT uptake by SERT primary site (S1) (unknown origin) expressed in African green monkey COS1 cells after 10 mins by TopCount scintillation counting method
Format: cell-based
measuredMetric: IC50 (nM)

CN(C)CCCC1(c2cccc3ccccc23)OCc2cc(C#N)ccc21 (stereo in doubt; 2) :: 250
CN(C)CCCC1(c2ccc3ccccc3c2)OCc2cc(C#N)ccc21 (single isomer, unassigned; enantiomer 2) :: 150
CN(C)CCCC1(c2cc(Cl)cc(Cl)c2)OCc2ccccc21 (single isomer, unassigned; enantiomer 2) :: 300
CN(C)CCCC(=O)c1ccc2c(c1)COC2(CCCN(C)C)c1ccc(F)cc1 (centres undefined) :: 1.6
CN(C)CCCC1(c2ccc(F)cc2)OCc2cc3ccccc3cc21 (centres undefined) :: 8

(P) CN(C)CCCC1(c2ccc(F)cc2)OCc2ccc3ccccc3c21 (centres undefined)
(Q) CN(C)CCCC1(c2ccc3ccccc3c2)OCc2cc(C#N)ccc21 (stereo in doubt; 1)
Compare the recorded IC50 of P and Q ; state which is larger. In your reply, give the label of the chosen option.
Q

(a) CN(C)CCCC1(c2cccc3ccccc23)OCc2cc(C#N)ccc21 (single isomer, unassigned; enantiomer 1)
(b) CN(C)CCCC1(c2ccc3ccccc3c2)OCc2cc(C#N)ccc21 (single isomer, unassigned)
Determine, for a and b , which has the greater value of IC50. Answer with the label corresponding to your selection.
a
(a: 740 nM, b: 10 nM)

====

Biological target: UniProt P31645
Experiment: Inhibition of [3H]5-HT uptake by SERT primary site (S1) (unknown origin) expressed in African green monkey COS1 cells after 10 mins by TopCount scintillation counting method
Assay type: cell-based
measuredMetric: IC50 (µM)

CN(C)CCCC1(c2cc(Cl)cc(Cl)c2)OCc2ccccc21 (stereo in doubt; 4) :: 0.34
CN(C)CCCC1(c2cc(Cl)cc(Cl)c2)OCc2ccccc21 (single isomer, unassigned; enantiomer 1) :: 0.35

(I) CN(C)CCCC1(c2cccc3ccccc23)OCc2cc(C#N)ccc21 (single isomer, unassigned; enantiomer 2)
(II) CN(C)CCCC1(c2ccc(F)cc2)OCc2c1ccc1ccccc21 (stereo not given)
(III) CN(C)CCCC1(c2ccc(Cl)c(Cl)c2)OCc2ccccc21 (stereo not given)
Rank descending by IC50. In plain terms: list the labels in the order you were asked to.
I, III, II
(I: 0.28 µM, III: 0.013 µM, II: 0.004 µM)

====

pEC50: −log10 of the molar value.
Below are pEC50 values measured for Sodium-dependent serotonin transporter (Homo sapiens).
measuredMetric: pEC50

CN(C)CCCC1(c2cc(Cl)cc(Cl)c2)OCc2ccccc21 (single isomer, unassigned; enantiomer 2) :: 4.70
CN(C)CCCC1(c2ccc(F)cc2)OCc2ccc3ccccc3c21 (centres undefined) :: 4.42
CN(C)CCCC1(c2ccc3ccccc3c2)OCc2cc(C#N)ccc21 (single isomer, unassigned; enantiomer 2) :: 4.26
CN(C)CCCC1(c2ccc(F)cc2)OCc2cc3ccccc3cc21 (centres undefined) :: 4.02

(1) CN(C)CCCC1(c2cccc3ccccc23)OCc2cc(C#N)ccc21 (single isomer, unassigned; enantiomer 1)
(2) CN(C)CCCC1(c2ccc3ccccc3c2)OCc2cc(C#N)ccc21 (stereo in doubt; 1)
Hey, which is lower on measured pEC50, 1 or 2 ? Bench note: the answer is the label of the chosen record.
2

(a) CN(C)CCCC1(c2cccc3ccccc23)OCc2cc(C#N)ccc21 (stereo in doubt; 2)
(b) CN(C)CCCC(=O)c1ccc2c(c1)COC2(CCCN(C)C)c1ccc(F)cc1 (centres undefined)
(c) CN(C)CCCC1(c2cc(Cl)cc(Cl)c2)OCc2ccccc21 (single isomer, unassigned; enantiomer 1)
Thanks in advance: please rank these 3 entries by pEC50, highest to lowest. Order the labels as requested and give them as your answer.
c, a, b

(a) CN(C)CCCC1(c2cccc3ccccc23)OCc2cc(C#N)ccc21 (single isomer, unassigned; enantiomer 2)
(b) CN(C)CCCC1(c2ccc(F)cc2)OCc2c1ccc1ccccc21 (centres undefined)
Could you tell me which of a and b has the lower pEC50 reading? Pick one; state its label.
b

(A) CN(C)CCCC1(c2cc(Cl)cc(Cl)c2)OCc2ccccc21 (stereo in doubt; 4)
(B) CN(C)CCCC1(c2ccc(Cl)c(Cl)c2)OCc2ccccc21 (centres undefined)
A or B : whose pEC50 is greater? To answer, give the label that identifies your chosen option.
A

====

Species on record: Homo sapiens
Test: Selectivity ratio of EC50 for inhibition of [3H]-S-citalopram dissociation from human SERT allosteric modulator site (S2) expressed in African green monkey COS7 cell membranes to IC50 for displacement of [3H]-S-citalopram from human SERT primary site (S1) expressed in African green monkey COS7 cell membranes
measuredMetric: Selectivity ratio

Some compounds with known Selectivity ratio results, for comparison:
CCCN(C)CCC[C@@]1(c2ccc(F)cc2)OCc2cc(C#N)ccc21 :: 31
CCN(C)CCC[C@@]1(c2ccc(F)cc2)OCc2cc(C#N)ccc21 :: 28
CCCCCN(C)CCC[C@@]1(c2ccc(F)cc2)OCc2cc(C#N)ccc21 :: 21
CCCN(C)CCC[C@]1(c2ccc(F)cc2)OCc2cc(C#N)ccc21 :: 8.5
CCCCN(C)CCC[C@@]1(c2ccc(F)cc2)OCc2cc(C#N)ccc21 :: 18

(a) CCN(C)CCC[C@]1(c2ccc(F)cc2)OCc2cc(C#N)ccc21
(b) CCCCN(C)CCC[C@]1(c2ccc(F)cc2)OCc2cc(C#N)ccc21
Between the entries labelled a and b , which has a larger Selectivity ratio value on record? Indicate your choice by writing its label.
b

====

Species on record: Homo sapiens
Experiment: Selectivity ratio of EC50 for inhibition of [3H]-S-citalopram dissociation from SERT allosteric modulator site (S2) (unknown origin) expressed in African green monkey COS1 cell membranes to IC50 for [3H]5-HT uptake by SERT primary site (S1) (unknown origin) expressed in African green monkey COS1 cells
Assay type: cell-based
Measured Selectivity ratio values are reported for all entries that follow.
Reply briefly: the number, and no unit.

CN(C)CCCC(=O)c1ccc2c(c1)COC2(CCCN(C)C)c1ccc(F)cc1 (stereo not drawn) :: 450000
CN(C)CCCC1(c2ccc3ccccc3c2)OCc2cc(C#N)ccc21 (single isomer, unassigned) :: 4100
CN(C)CCCC1(c2cc(Cl)cc(Cl)c2)OCc2ccccc21 (single isomer, unassigned; enantiomer 2) :: 67
CN(C)CCCC1(c2ccc3ccccc3c2)OCc2cc(C#N)ccc21 (single isomer, unassigned; enantiomer 2) :: 370
CN(C)CCCC1(c2ccc(F)cc2)OCc2cc3ccccc3cc21 (stereo not drawn) :: 12000

Bench note: what Selectivity ratio did CN(C)CCCC1(c2ccc(Cl)c(Cl)c2)OCc2ccccc21 (stereo not drawn) show?
2300

Which measured Selectivity ratio value corresponds to CN(C)CCCC1(c2cccc3ccccc23)OCc2cc(C#N)ccc21 (stereo in doubt; 2) ?
76

Look at this compound and give its reported Selectivity ratio. CN(C)CCCC1(c2cc(Cl)cc(Cl)c2)OCc2ccccc21 (single isomer, unassigned; enantiomer 1)
25

====

Sodium-dependent serotonin transporter (Homo sapiens): recorded pEC50 for assorted compounds
pEC50: −log10 of the molar value.
measuredMetric: pEC50

CCN(C)CCC[C@]1(c2ccc(F)cc2)OCc2cc(C#N)ccc21 :: 4.70
CCCCN(C)CCC[C@]1(c2ccc(F)cc2)OCc2cc(C#N)ccc21 :: 4.84

(a) CCCCN(C)CCC[C@@]1(c2ccc(F)cc2)OCc2cc(C#N)ccc21
(b) CCN(C)CCC[C@@]1(c2ccc(F)cc2)OCc2cc(C#N)ccc21
Identify the entry with the smaller pEC50: a or b . Bench note: the answer is the label of the chosen record.
b

====

Species on record: Homo sapiens
Experiment: Selectivity ratio of EC50 for inhibition of [3H]-S-citalopram dissociation from SERT allosteric modulator site (S2) (unknown origin) expressed in African green monkey COS1 cell membranes to IC50 for [3H]5-HT uptake by SERT primary site (S1) (unknown origin) expressed in African green monkey COS1 cells
Format: cell-based
Each record here notes measured Selectivity ratio.
Reply briefly: the number, and no unit.

CN(C)CCCC1(c2cccc3ccccc23)OCc2cc(C#N)ccc21 (single isomer, unassigned; enantiomer 2) :: 68
CN(C)CCCC1(c2cccc3ccccc23)OCc2cc(C#N)ccc21 (single isomer, unassigned; enantiomer 1) :: 19
CN(C)CCCC1(c2ccc(F)cc2)OCc2ccc3ccccc3c21 (stereo unspecified) :: 3200

Name the reported Selectivity ratio value associated with the compound CN(C)CCCC1(c2cc(Cl)cc(Cl)c2)OCc2ccccc21 (stereo in doubt; 4)
44

What value of measured Selectivity ratio is listed for CN(C)CCCC1(c2ccc3ccccc3c2)OCc2cc(C#N)ccc21 (stereo in doubt; 1) ?
2000

For the compound shown here, CN(C)CCCC1(c2ccc(F)cc2)OCc2c1ccc1ccccc21 (stereo unspecified) , give the reported Selectivity ratio.
7800
